Overview of recorded TGI for various molecules
Test system: LOX IMVI melanoma
ASSAY NAME: NCI tumour cell line growth inhibition, 48 h
MEASURE: TGI

MOLECULE	REPORTED MEASUREMENT
COc1ccc2c(c1)/C(=C/CCN(C)C)c1ccccc1S2	> 100 µM
COc1cccc(C(=O)O[C@H]2[C@@H]3[C@]4(OC(C)=O)CO[C@@H]4C[C@H](O)[C@@]3(C)C(=O)[C@H](OC(C)=O)C3=C(C)[C@@H](OC(=O)[C@H](O)[C@@H](NC(=O)OC(C)(C)C)c4ccco4)C[C@]2(O)C3(C)C)c1	> 15.6 µM
Cc1ccc(Cl)c2c(N=Nc3ccccc3[N+](=O)[O-])c(O)[nH]c12	> 100 µM
O=C1/C(=C/c2ccccc2)N=C2Sc3c(nc[nH]c3=O)N12	> 100 µM
C#CCNC(CS)C(=O)O (centres undefined)	> 100 µM
Cc1ccc(S(=O)(=O)OC[C@@H]2CO2)cc1	> 100 µM
Cc1ccccc1C(=O)N1CCc2c([nH]c3ccccc23)C1	50.2 µM
Fc1[nH]nc2ccc([C@@H]3Nc4ccc5[nH]ncc5c4[C@H]4C5CCC(C5)[C@@H]34)cc12 (some centres undefined)	14 µM
Cc1ccc(-c2n[nH]c(=O)n2N2C(=O)c3ccccc3C2=O)cc1	> 100 µM
